Tested on: DLD-1 colon
TEST_NAME: NCI tumour cell line growth inhibition, 48 h
compounds and their reported TGI
ENDPOINT: TGI

COMPOUND	RECORDED_RESULT
OCC(O)COc1ccc(F)cc1 (stereo not drawn)	> 100 µM
Cc1ccc(NC(=O)CC2SC(=Nc3cccc(Cl)c3C)NC2=O)cc1 (stereo not drawn)	> 100 µM
CN1C[C@@H]2CC(=O)CC[C@@H]2C[C@H]1C#N	> 100 µM
c1ccc2c(CNCCCN3CCN(CCCNCc4cccc5ccccc45)CC3)cccc2c1	3.69 µM
CCOC(=O)c1sc(Nc2cc(Cl)ccc2Cl)nc1C	> 100 µM
N#CC(NNC(=O)Cc1ccccc1)c1ccc(O)cc1 (stereo not drawn)	> 100 µM
O=C(Cc1c(C(=O)Nc2ccccc2)sc(C(=O)Nc2ccccc2)c1CC(=O)Nc1ccccc1)Nc1ccccc1	> 100 µM
CCOC(=O)C(CC(C)C)NC(=O)C(N)Cc1ccc(N(CCCl)CCCl)cc1 (stereo not drawn)	8.27 µM
CCCCN(CCCC)C(=O)C(=O)C(C(=O)C(=O)OC)c1nc2ccccc2o1 (stereo not drawn)	> 100 µM
Nc1ccc(N=Nc2ccc(-c3ccc(N=Nc4c(S(=O)(=O)O)cc5cc(S(=O)(=O)O)c(N=Nc6ccc([N+](=O)[O-])cc6)c(N)c5c4O)cc3)cc2)c2cc(S(=O)(=O)O)ccc12	> 100 µM
Cc1cc2c(=O)cc(-c3ccc(C(=O)O)cc3)oc2c(C(N)=O)c1C	> 100 µM
Cc1cc2c(=O)c3ccc(Cl)cc3[nH]c2c(C(=O)O)c1C	> 100 µM
C=CCC1=C2CCCCC2CCC1=O (stereo not drawn)	> 100 µM

###

List of TGI values.
Test system: PC-3 prostate
TEST_NAME: NCI tumour cell line growth inhibition, 48 h
Where a SMILES comes first, the peptide text is derived from it. The star is where a group is joined. Boc = CC(C)(C)OC(=O)*
ENDPOINT: TGI

MOLECULE	RECORDED_RESULT
COc1ccc(/C=C2\N=C(N3CCOCC3)NC2=O)cc1	> 100 µM
Cc1cc(C)c2c(=O)cc(-c3ccccc3)[nH]c2c1	> 93.2 µM
ClCCN(CCCl)c1ccc(OCc2ccccc2)cc1	> 100 µM
CN(NC(=O)c1ccc(Cl)cc1)C1=NCCCCN1	> 100 µM
COc1cc(Br)cc2c1O[C@H]1C(=O)CC3CC21CCN3C (stereo partly specified)	> 100 µM
CNC(=O)CNC(=O)C(NC(=O)CNC(=O)C1CCCN1C(=O)C(C)NC(=O)C(NC(=O)OC(C)(C)C)C(C)C)C(C)C (stereo unspecified) (Boc-VAPGVG-NHMe; configuration not given here)	> 100 µM

###

Listed compounds paired with reported TGI
Test system: T-47D breast
TEST_NAME: NCI tumour cell line growth inhibition, 48 h
ENDPOINT: TGI

> print(dat)
                                   compound  recorded.result
1  CCCCCCCCOP(=O)(O)OP(=O)(O)OCC1OC(n2ccc(N)nc2=O)C(O)C1O (stereo unspecified)         > 100 µM
2  c1ccc(C2C3=C(c4ccccc4CC3)N3c4cc5nc6ccccc6nc5cc4NC34CCCCC24)cc1 (stereo unspecified)          > 10 µM
3  O=C(O)c1ccc(NCn2nc(-c3ccccc3O)oc2=S)cc1O         > 100 µM
4                     N#Cc1nc(N)c(C#N)[nH]1         > 100 µM
5   Cc1cc(C)c2c(=O)cc(-c3ccc(F)cc3)[nH]c2n1         > 100 µM
6          COc1ccc2cc(NC(=O)Nn3cnnc3)ccc2c1         > 100 µM

###

Listed next: entries and their corresponding TGI.
System: NCI-H226 lung
TEST_NAME: NCI tumour cell line growth inhibition, 48 h
ENDPOINT: TGI

> print(dat)
                                smiles.code  experimental.system  recorded.result
1               Clc1ccc(Nc2ncnc3ccccc23)cc1        NCI-H226 lung         > 100 µM
2          CCOC(=O)c1cc2c(OC)cc(OC)cc2oc1=O        NCI-H226 lung         > 100 µM
3  O=[N+]([O-])c1cccc(C=NC23CC4CC(CC(C4)C2)C3)c1        NCI-H226 lung         > 100 µM

###

System: HS 578T breast
TEST_NAME: NCI tumour cell line growth inhibition, 48 h
Below is a list of entries, each paired with its recorded TGI value.
ENDPOINT: TGI

> print(dat)
                                   molecule  recorded.result
1  CC(=O)OC12c3ccccc3C(c3ccccc31)C1C(=O)N(Nc3ccccc3)C(=O)C12 (stereo not drawn)         > 100 µM
2  O=C(Nn1c(-c2ccccc2)nc2ccccc2c1=O)c1ccc([N+](=O)[O-])cc1         > 100 µM
3  Clc1ccc(-c2cn3c(nc4ccccc43)c(/C=C/c3cccs3)n2)cc1         > 100 µM

###

Test system: OVCAR-3 ovarian
TEST_NAME: NCI tumour cell line growth inhibition, 48 h
Below, each entry is listed alongside its reported TGI.
ENDPOINT: TGI (µM)

> print(dat)
                                   compound  endpoint  display.unit  operator.symbol  recorded.result
1     CCOC(=O)Nc1ccc2c3c(cccc13)-c1ccccc1-2       TGI            µM                =             8.92
2  O=[N+]([O-])c1cccc(C=NC23CC4CC(CC(C4)C2)C3)c1       TGI            µM                >              100
3  Cc1ccc(S(=O)OC2c3ccccc3Cc3ccccc32)cc1 (configuration not stated)       TGI            µM                =             44.5
4  CCOC(=O)C(CC(C)C)NC(=O)C(N)Cc1ccc(N(CCCl)CCCl)cc1 (configuration not stated)       TGI            µM                =             4.72
5  C=CCC1=C2CCCCC2CCC1=O (configuration not stated)       TGI            µM                >              100
6  CC1(C)CC(=O)c2c(nc3c(ccc4ccccc43)c2-c2ccc(NC(=O)CCCCCCCCC(=O)Nc3ccc(-c4c5c(nc6c4ccc4ccccc46)CC(C)(C)CC5=O)cc3)cc2)C1       TGI            µM                >              100
7      Cc1cc(C)c2c(=O)cc(-c3ccccc3)[nH]c2c1       TGI            µM                =             25.6

###

Each record here notes measured TGI.
System: UACC-62 melanoma
TEST_NAME: NCI tumour cell line growth inhibition, 48 h
ENDPOINT: TGI

> print(dat)
                                smiles.code  endpoint  recorded.result
1         Cc1cc(N(C)C)ccc1N=Nc1ccc2ncccc2c1       TGI         > 100 µM
2                            C#CCOCCCC(=O)O       TGI         > 100 µM
3  O=C(Cc1c(C(=O)Nc2ccccc2)sc(C(=O)Nc2ccccc2)c1CC(=O)Nc1ccccc1)Nc1ccccc1       TGI         > 100 µM

###

Below, each entry is listed with its recorded TGI.
Tested on: UO-31 renal
TEST_NAME: NCI tumour cell line growth inhibition, 48 h
ENDPOINT: TGI

> print(dat)
                                   compound  recorded.result
1  CN1CCC2(CC1)C(=O)N(NC(N)=O)C(=O)C2c1ccccc1 (stereo not drawn)         > 100 µM
2                     NNC(=S)N/N=C/c1ccccn1         > 100 µM
3  CO[C@@H]1C[C@H]2[C@@H]3CC[C@H]([C@@H](C)COC(C)=O)[C@@]3(C)CC[C@@H]2[C@@]2(C)CC[C@H]3C[C@]312          32.4 µM

###

Test system: UO-31 renal
TEST_NAME: NCI tumour cell line growth inhibition, 48 h; in the data active = GI50 below about 0.43 µM; inactive = the rest
Outcome codes: active, inactive

> print(dat)
                                   molecule  experimental.system     class
1  COc1ccc2c(c1)OC(N)=C(C#N)C2c1ccc(F)c(F)c1 (centres undefined)          UO-31 renal  inactive
2  O=C([CH-]C(=O)c1ccccc1)c1ccccc1.O=C([CH-]C(=O)c1ccccc1)c1ccccc1.[CH2-]CCC.[CH2-]CCC.[Sn+4]          UO-31 renal  inactive
3  CC[n+]1c(/C=C/c2ccc(N3CCCC3)cc2)cccc1/C=C/c1ccc(N2CCCC2)cc1          UO-31 renal    active
4  O=C(NCCCNc1cc(-c2cn(-c3ccccc3)nc2-c2cccc(O)c2)ccn1)c1ccc(F)cc1          UO-31 renal  inactive

Data credit: PubChem BioAssay (NCI)
